FYI, the data here is from ChEMBL document CHEMBL1142823.

Molecular target: Transient receptor potential cation channel subfamily V member 1 (Rattus norvegicus, UniProt O35433)
Sequence (O35433 whole entry): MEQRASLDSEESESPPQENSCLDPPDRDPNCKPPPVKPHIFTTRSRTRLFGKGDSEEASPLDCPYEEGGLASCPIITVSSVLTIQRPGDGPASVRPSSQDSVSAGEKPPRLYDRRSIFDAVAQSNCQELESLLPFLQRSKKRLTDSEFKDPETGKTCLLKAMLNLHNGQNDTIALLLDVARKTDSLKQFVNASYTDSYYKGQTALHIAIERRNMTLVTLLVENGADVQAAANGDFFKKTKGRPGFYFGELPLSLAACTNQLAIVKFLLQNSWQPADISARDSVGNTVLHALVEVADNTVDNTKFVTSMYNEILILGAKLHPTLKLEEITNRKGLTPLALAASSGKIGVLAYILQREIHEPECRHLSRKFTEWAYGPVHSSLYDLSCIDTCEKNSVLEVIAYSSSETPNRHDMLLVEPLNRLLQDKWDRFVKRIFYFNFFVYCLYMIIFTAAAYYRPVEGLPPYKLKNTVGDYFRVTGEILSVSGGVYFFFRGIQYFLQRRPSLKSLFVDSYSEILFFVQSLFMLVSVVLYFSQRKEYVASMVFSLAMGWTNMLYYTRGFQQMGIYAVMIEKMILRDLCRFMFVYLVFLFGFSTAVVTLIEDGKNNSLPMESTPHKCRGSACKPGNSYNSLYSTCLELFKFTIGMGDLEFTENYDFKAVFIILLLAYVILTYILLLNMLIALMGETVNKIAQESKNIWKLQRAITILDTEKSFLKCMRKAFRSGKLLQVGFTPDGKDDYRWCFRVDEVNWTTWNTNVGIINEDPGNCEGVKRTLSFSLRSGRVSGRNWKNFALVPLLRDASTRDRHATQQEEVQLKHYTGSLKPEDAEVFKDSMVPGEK
Assay: Induction of [Ca2+] uptake in CHO cells expressing rat TRPV1 at 10-30 uM relative to 300 nM capsaicin; Weakly effective
Type: functional, cell-based
Simple rule here: efficacy less than 10% is true (1), otherwise false (0).

>>> print(df.to_string())
                                chem_smiles  answer_label
0  CC(C)(C)c1ccc(CN(O)/C(S)=N/Cc2ccc(NS(C)(=O)=O)cc2)cc1     false (0)
1  CC(C)(C)c1ccc(CO/C(S)=N/Cc2ccc(NS(C)(=O)=O)cc2)cc1     false (0)
2  CC(C)(C)c1ccc(CC(=O)NCc2ccc(NS(C)(=O)=O)cc2)cc1     false (0)
3  CC(C)(C)c1ccc(C/N=C(\S)OCc2ccc(NS(C)(=O)=O)c(F)c2)cc1      true (1)
4  CC(C)(C)c1ccc(CN(O)C(=O)Cc2ccc(NS(C)(=O)=O)cc2)cc1     false (0)

---

Measured pKi, listed per entry.
Biological target: Transient receptor potential cation channel subfamily V member 1 (Rattus norvegicus)
Assay: In vitro inhibition of [3H]RTX binding to rat TRPV1 expressed in CHO cells
Format: cell-based
pKi: −log10 of the molar value.
Readout name: pKi

>>> df
                                chem_smiles                           subject_of_test  value_measured
0  CC(C)(C)c1ccc(CO/C(S)=N/Cc2ccc(NS(C)(=O)=O)cc2)cc1  Transient receptor potential cation channel subfamily V member 1 (Rattus norvegicus)            5.34
1  CC(C)(C)c1ccc(CNC(=O)Cc2ccc(NS(C)(=O)=O)cc2)cc1  Transient receptor potential cation channel subfamily V member 1 (Rattus norvegicus)            5.68
2  Cc1ccc(CCCNC(=O)Cc2ccc(NS(C)(=O)=O)cc2)cc1C  Transient receptor potential cation channel subfamily V member 1 (Rattus norvegicus)            5.14
3  CC(C)(C)c1ccc(CNC(=O)NCc2ccc(NS(C)(=O)=O)cc2)cc1  Transient receptor potential cation channel subfamily V member 1 (Rattus norvegicus)            5.59
4  CC(C)(C)c1ccc(CC(=O)NCc2ccc(NS(C)(=O)=O)cc2)cc1  Transient receptor potential cation channel subfamily V member 1 (Rattus norvegicus)            5.28

---

Molecular target: Transient receptor potential cation channel subfamily V member 1 (Rattus norvegicus, UniProt O35433)
Experiment: In vitro inhibition of [3H]RTX binding to rat TRPV1 expressed in CHO cells
Format: cell-based
Readout name: Ki (nM)

>>> df
                                chem_smiles  readout_name  relation_qualifier  value_measured
0  COc1cc(CNC(=S)NCc2ccc(C(C)(C)C)cc2)ccc1NS(C)(=O)=O            Ki                   =            50.4
1  COc1cc(CO/C(S)=N/Cc2ccc(C(C)(C)C)cc2)ccc1NS(C)(=O)=O            Ki                   =             461
2  CC(C)(C)c1ccc(CNC(=S)NCc2ccc(NS(C)(=O)=O)c(F)c2)cc1            Ki                   =            53.5
3  CC(C)(C)c1ccc(N/N=C(\S)NCc2ccc(NS(C)(=O)=O)cc2)cc1            Ki                   =            6400
4  CC(C)(C)c1ccc(CNC(=O)Cc2ccc(NS(C)(=O)=O)c(F)c2)cc1            Ki                   =             472
5  CC(C)(C)c1ccc(C/N=C(\S)OCc2ccc(NS(C)(=O)=O)cc2)cc1            Ki                   =             772
6  CC(C)(C)c1ccc(CN(O)/C(S)=N/Cc2ccc(NS(C)(=O)=O)cc2Cl)cc1            Ki                   =            2270
7  CC(C)(C)c1ccc(C/N=C(\S)OCc2ccc(NS(C)(=O)=O)c(F)c2)cc1            Ki                   =             450
8  CC(C)(C)c1ccc(CN(O)/C(S)=N/Cc2ccc(NS(C)(=O)=O)c(Cl)c2)cc1            Ki                   =            1310
9  CCCCCCCC/C=C\CCCCCCCCNC(=O)Cc1ccc(NS(C)(=O)=O)cc1            Ki                   >           25000
